# Tested on: Human immunodeficiency virus 1
# procedure details: Antiviral activity against multidrug-resistant HIV1 isolate MM containing L10I, K43T, M46L, I54V, L63P, A71V, V82A, L90M, and Q92K mutant infected in human PHA-PBMC cells by p24 Gag protein production inhibition assay
# condition summary: Human immunodeficiency virus 1, isolate MM
Mark each entry Fulfilled if its EC50 sits below 0.2 µM, and Not fulfilled for all others.

Is EC50 of `CC(C)CN(C[C@@H](O)[C@H](Cc1ccccc1)NC(=O)O[C@H]1CCOC1)S(=O)(=O)c1ccc(N)cc1` strictly below 0.2 µM?
Not fulfilled

Could you please tell me whether EC50 recorded for `CCC[C@@]1(CCc2ccccc2)CC(O)=C([C@H](CC)c2cccc(NS(=O)(=O)c3ccc(C(F)(F)F)cn3)c2)C(=O)O1` is less than 0.2 µM?
Not fulfilled

====

# Tested on: Human immunodeficiency virus 1
# procedure details: Antiviral activity against multidrug-resistant HIV1 isolate MM containing L10I, K43T, M46L, I54V, L63P, A71V, V82A, L90M, and Q92K mutant infected in human PHA-PBMC cells by p24 Gag protein production inhibition assay
# condition summary: Human immunodeficiency virus 1, isolate MM
assay metric: EC50 (nM)
Only the number, expressed in nM, is required.

COc1ccc2c(c1)OCC/C=C\CCCCN(C[C@@H](O)[C@H](Cc1ccccc1)NC(=O)O[C@H]1CO[C@H]3OCC[C@H]31)S2(=O)=O    33
COc1ccc2c(c1)OCCC/C=C\CCCCN(C[C@@H](O)[C@H](Cc1ccccc1)NC(=O)O[C@H]1CO[C@H]3OCC[C@H]31)S2(=O)=O    55
COC(=O)N[C@H](C(=O)N[C@@H](Cc1ccccc1)[C@@H](O)CN(Cc1ccc(-c2ccccn2)cc1)NC(=O)[C@@H](NC(=O)OC)C(C)(C)C)C(C)(C)C [ATAZANAVIR]    180

Next, consider the following molecule.
Item: `CC(C)(C)NC(=O)[C@@H]1C[C@@H]2CCCC[C@@H]2CN1C[C@@H](O)[C@H](Cc1ccccc1)NC(=O)[C@H](CC(N)=O)NC(=O)c1ccc2ccccc2n1` | EC50: 190

Recorded values, source ChEMBL document CHEMBL1649305.
